Data provenance is the kinase profiling compilation of Christmann-Franck et al. (2016).

Target: CaMK1 (human)
Assay: KINOMEscan competition binding
Conditions: compound 10.0 µM

compound-structure-string | experimental-target | unit-descriptor | kinase still bound, per cent of control
CCN(CC)CCCCNc1ncc2c(n1)N(C)C(=O)N(c1c(Cl)c(OC)cc(OC)c1Cl)C2 | CaMK1 (human) | % | 100
CNC(=O)c1cc(Oc2ccc(NC(=O)Nc3ccc(Cl)c(C(F)(F)F)c3)cc2)ccn1 | CaMK1 (human) | % | 82
O=C1NC(=O)/C(=C/c2ccc3nccc(-c4ccncc4)c3c2)S1 | CaMK1 (human) | % | 65
C=CC(=O)Nc1ccc(CN(C(=O)Nc2c(Cl)c(OC)cc(OC)c2Cl)c2cc(Nc3ccc(N4CCN(C)CC4)cc3)ncn2)cc1 | CaMK1 (human) | % | 100
CCN1CCN(C(=O)Cc2ccc(Nc3ncc(F)c(Nc4ccc(C(=O)Nc5ccccc5Cl)cc4)n3)cc2)CC1 | CaMK1 (human) | % | 14
CS(=O)(=O)N1CCN(Cc2cc3nc(-c4cccc5[nH]ncc45)nc(N4CCOCC4)c3s2)CC1 | CaMK1 (human) | % | 100
C[C@@H](Oc1cc(-c2cnn(C3CCNCC3)c2)cnc1N)c1c(Cl)ccc(F)c1Cl | CaMK1 (human) | % | 37
C=CC(=O)Nc1cc(-n2c(=O)ccc3cnc4ccc(-c5cn[nH]c5)cc4c32)ccc1C | CaMK1 (human) | % | 96
CCN(CC)CCCCNc1ncc2cc(-c3cc(OC)cc(OC)c3)c(NC(=O)NC(C)(C)C)nc2n1 | CaMK1 (human) | % | 100
COc1cc(C(=O)N2CCC(N3CCN(C)CC3)CC2)ccc1Nc1ncc2c(n1)N(C)c1ccccc1C(=O)N2C | CaMK1 (human) | % | 55
NC(=O)Nc1cc(-c2cccc(F)c2)sc1C(=O)N[C@@H]1CCCNC1 | CaMK1 (human) | % | 2
O=c1cc(N2CCOCC2)oc2c(-c3cccc4c3sc3ccccc34)cccc12 | CaMK1 (human) | % | 91
COc1cc(N2CCN(C)CC2)ccc1Nc1ncc2c(n1)N(C)c1ccccc1C(=O)N2C | CaMK1 (human) | % | 100
CNC(=O)c1ccc(Nc2cc(Nc3ccccc3S(=O)(=O)C(C)C)c3cc[nH]c3n2)nc1 | CaMK1 (human) | % | 100
N#CCNC(=O)c1ccc(-c2ccnc(Nc3ccc(N4CCOCC4)cc3)n2)cc1 | CaMK1 (human) | % | 59
COc1cc2ncnc(-n3nc(-c4ccccn4)nc3N)c2cc1OC | CaMK1 (human) | % | 31
O=C(Nc1cccc(Nc2ncc(Br)c(NCCc3cnc[nH]3)n2)c1)N1CCCC1 | CaMK1 (human) | % | 11
COc1ccc(N(C(=O)Oc2c(C)cccc2C)c2ccnc(Nc3ccc(N4CCN(C)CC4)cc3)n2)c(OC)c1 | CaMK1 (human) | % | 83
COCC(=O)NC/C=C/c1ccc2ncnc(Nc3ccc(Oc4ccc(C)nc4)c(C)c3)c2c1 | CaMK1 (human) | % | 72
CN(C)C/C=C/C(=O)Nc1ccc(C(=O)Nc2cccc(Nc3nccc(-c4cccnc4)n3)c2)cc1 | CaMK1 (human) | % | 94
Cc1n[nH]c2ccc(-c3cncc(OC[C@@H](N)Cc4c[nH]c5ccccc45)c3)cc12 | CaMK1 (human) | % | 33
COc1cc2ncn(-c3cc(OCc4ccccc4C(F)(F)F)c(C(N)=O)s3)c2cc1OC | CaMK1 (human) | % | 100
